# Experiment notes: AUC in mouse at 5.2 mg/kg, po
# Assay type: ADME, organism-based
# Design: dose 5.2 mg/kg, route oral
# Conditions used: plasma

Chemical structure	AUC
CC(C)[C@@H](NC(=O)c1ccccc1)C(=O)N1CCC(c2ccc(Cl)cc2)CC1	6.6 µM·h

====

# Measurement target: C-C chemokine receptor type 1 (Homo sapiens)
# Sequence (P32246 whole entry): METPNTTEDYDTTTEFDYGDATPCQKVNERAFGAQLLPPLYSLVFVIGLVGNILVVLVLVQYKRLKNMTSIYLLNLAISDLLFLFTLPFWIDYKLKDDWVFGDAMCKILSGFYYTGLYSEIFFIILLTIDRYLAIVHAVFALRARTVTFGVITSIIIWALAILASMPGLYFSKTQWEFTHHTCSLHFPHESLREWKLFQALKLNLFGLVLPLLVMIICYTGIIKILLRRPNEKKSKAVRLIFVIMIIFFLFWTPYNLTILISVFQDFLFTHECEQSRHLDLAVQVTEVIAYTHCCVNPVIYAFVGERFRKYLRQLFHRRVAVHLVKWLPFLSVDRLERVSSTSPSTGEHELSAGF
# Experiment notes: Antagonist activity at CCR1 in human THP1 cells assessed as inhibition of MIP-1alpha-induced calcium flux by FLIPR
# Format: functional, cell-based, THP-1

Chemical structure	IC50 / µM
CC(C)[C@@H](NC(=O)c1ccccc1)C(=O)N1CCC(c2ccc(Cl)cc2)CC1	0.015

====

# Experiment notes: Half life in mouse at 2.5 mg/kg, iv
# Format: ADME, organism-based
# Design: dose 2.5 mg/kg, route intravenous
# Conditions used: in vivo
Quantity measured: half-life (min)

Chemical structure	Reported measurement
CC(C)[C@@H](NC(=O)c1ccccc1)C(=O)N1CCC(c2ccc(Cl)cc2)CC1	414

====

# Experiment notes: Cmax in mouse at 5.2 mg/kg, po
# Type: ADME, organism-based
# Design: dose 5.2 mg/kg, route oral
# Conditions used: in vivo

Chemical structure	Cmax, µM
CC(C)[C@@H](NC(=O)c1ccccc1)C(=O)N1CCC(c2ccc(Cl)cc2)CC1	3.1

====

# Measurement target: Cytochrome P450 2C9 (Homo sapiens)
# Sequence (P11712 whole entry): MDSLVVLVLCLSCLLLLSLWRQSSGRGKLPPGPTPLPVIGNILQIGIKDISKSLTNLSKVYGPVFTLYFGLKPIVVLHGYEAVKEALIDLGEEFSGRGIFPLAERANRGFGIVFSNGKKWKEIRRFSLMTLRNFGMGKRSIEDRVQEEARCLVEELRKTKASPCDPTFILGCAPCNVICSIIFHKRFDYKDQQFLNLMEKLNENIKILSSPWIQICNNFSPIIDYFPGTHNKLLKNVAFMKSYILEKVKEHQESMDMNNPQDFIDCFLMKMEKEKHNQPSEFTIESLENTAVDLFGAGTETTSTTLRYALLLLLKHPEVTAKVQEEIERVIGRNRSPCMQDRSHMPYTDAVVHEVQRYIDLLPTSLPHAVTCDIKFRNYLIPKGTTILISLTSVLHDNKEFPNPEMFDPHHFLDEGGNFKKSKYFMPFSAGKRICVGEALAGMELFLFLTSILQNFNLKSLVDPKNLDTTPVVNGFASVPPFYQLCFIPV
# Experiment notes: Inhibition of recombinant CYP2C9 expressed in baculovirus-infected insect cells using fluorogeinc substrate

Chemical structure	Measurement target	IC50
CC(C)[C@@H](NC(=O)c1ccccc1)C(=O)N1CCC(c2ccc(Cl)cc2)CC1	Cytochrome P450 2C9 (Homo sapiens)	> 40 µM

====

# Measurement target: Cytochrome P450 2D6 (Homo sapiens)
# Sequence (P10635 whole entry): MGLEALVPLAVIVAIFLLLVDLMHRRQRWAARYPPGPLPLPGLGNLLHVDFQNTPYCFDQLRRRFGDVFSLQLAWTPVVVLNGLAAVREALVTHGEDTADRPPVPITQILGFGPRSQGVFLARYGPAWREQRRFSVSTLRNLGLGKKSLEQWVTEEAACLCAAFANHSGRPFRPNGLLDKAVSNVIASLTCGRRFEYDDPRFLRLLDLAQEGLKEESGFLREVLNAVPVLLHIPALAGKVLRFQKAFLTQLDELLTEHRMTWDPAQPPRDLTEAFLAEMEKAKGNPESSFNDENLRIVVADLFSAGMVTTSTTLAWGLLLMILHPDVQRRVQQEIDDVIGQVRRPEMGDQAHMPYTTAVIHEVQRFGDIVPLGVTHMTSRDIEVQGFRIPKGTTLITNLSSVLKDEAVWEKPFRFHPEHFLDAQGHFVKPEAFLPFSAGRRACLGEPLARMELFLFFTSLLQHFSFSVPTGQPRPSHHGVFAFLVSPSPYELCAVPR
# Experiment notes: Inhibition of recombinant CYP2D6 expressed in baculovirus-infected insect cells using fluorogeinc substrate
pIC50: −log10 of the molar value.

Chemical structure	Measurement target	pIC50
CC(C)[C@@H](NC(=O)c1ccccc1)C(=O)N1CCC(c2ccc(Cl)cc2)CC1	Cytochrome P450 2D6 (Homo sapiens)	< 4.40
